Test system: HIV-1
TEST_DETAILS: microbe, parasite or virus in culture
Format: cell-based, HIV-1 (H9IIIB or NL4-3 virus)
SETTINGS: Human immunodeficiency virus 1, read-out: WILD TYPE CELL ASSAY Viking IP (100% NHS) (nM)
MEASURE_NAME: IC50
Write the quantity with the unit trailing the number.

Please review the following examples before continuing.
[[record]]
compound = "CCN[C@H]1C[C@@H]2CN(CC)C(=O)c3c(O)c(=O)c(C(=O)NCc4cccc(F)c4F)c1n32"
readout_value = "1980 nM"

[[record]]
compound = "CCN1C[C@H]2C[C@@H](NCCC(F)(F)F)c3c(C(=O)NCc4ccc(F)cc4F)c(=O)c(O)c(n32)C1=O"
readout_value = "31 nM"

[[record]]
compound = "CCN1C[C@@H]2C[C@H](NS(C)(=O)=O)c3c(C(=O)NCc4ccc(F)cc4F)c(=O)c(O)c(n32)C1=O"
readout_value = "1040 nM"

[[record]]
compound = "CCN1C[C@H]2C[C@H](NC(C)=O)c3c(C(=O)NCc4ccc(F)cc4F)c(=O)c(O)c(n32)C1=O (single isomer, unassigned)"
readout_value = "38 nM"


Okay, now this compound:
Return reported IC50. Input compound: CCN[C@H]1C[C@@H]2CN(CC)C(=O)c3c(O)c(=O)c(C(=O)NCc4cccc(Cl)c4F)c1n32 10900 nM
